- ASSAYED TARGET: T1, mouse VEGF (mouse, UniProt Q00731-2 27-190)
- T1 construct: Bought recombinant protein; also called mVEGF-A; mouse VEGF-A
- T1 sequence (looked up): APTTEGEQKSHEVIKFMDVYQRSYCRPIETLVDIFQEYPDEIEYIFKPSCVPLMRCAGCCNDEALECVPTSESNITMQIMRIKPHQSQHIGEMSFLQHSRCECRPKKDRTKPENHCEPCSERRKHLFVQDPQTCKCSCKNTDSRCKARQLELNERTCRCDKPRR
- TEST SUMMARY: ELISA, mouse VEGF coated, anti-human Fc-HRP, absorbance 450 nm [a]
QUANTITY KIND: EC50 (read off the curve)

Query :: Dear colleague, I am looking for the recorded EC50 (read off the curve) of the following binder: HF2-11 (antibody, V domains shown, also called HF-11; clone HF2-11) VH: EVQLVESGGGLVQPGGSLRLSCAASGFLIRSHGMQWVRQAPGKGLEYVAGISSDGSWVKVAAAVEGRFTISRDDSKNTAYLQMNSLRAEDTAVYYCARDFSTGYGADSIDAWGQGTLVTVSS VL: DIQMTQSPSSLSASVGDRVTITCSGGSSEPLGYGWYQQKPGKAPKTLIYWDDKRPSGVPSRFSGSRSGTDFTLTISSLQPEDFATYYCGAWEYSGGVGIFGQGTKVEIK
Result :: ~0.05 µg/mL
